Data origin: paper PMC9482650

Biological target: T1, HTRA4, P83105
T1 sequence (P83105 378-476, limits assumed, looked up): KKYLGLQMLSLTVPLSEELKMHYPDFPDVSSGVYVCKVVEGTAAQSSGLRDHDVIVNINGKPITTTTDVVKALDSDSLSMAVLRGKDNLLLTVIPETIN
Test: holdup assay
Parameters: key: below the threshold = too weak to quantify, mostly under pKd 3.1 to 4
Conditions: plain residues with an end cap or a label only (N-terminal biotin on a linker: ado-ado)
experimental-endpoint: pKd

{"columns": ["binder", "experimental-endpoint", "measured"],
 "data": [
  ["GFGEERESIL [KIDINS220, Q9ULH0]", "pKd", "below the threshold"],
  ["TETASVCTKV [SLC23A1, Q9UHI7]", "pKd", 4.15],
  ["FVHPILQSAV [PRKCA, P17252]", "pKd", "below the threshold"],
  ["QKNKDKEYYV [NRXN3_rs746444206, Q9Y4C0]", "pKd", "below the threshold"]
]}
